- Test system: porcine alveolar macrophages (PAMs)
- Procedure Details: MTT cytotoxicity assay in PAMs
- Format: cell-based, pig
- Measurement Setup: Sus scrofa, Macrophage, 24 h incubation, read-out: IC50, cell viability in MTT assay
Observation Type: IC50 (µM)
Numbers only, in µM.

Report IC50 for Cc1cc(F)ccc1S(=O)(=O)Nc1nc2ccccc2nc1Nc1cccc(S(=O)(=O)N2CCOCC2)c1 [Compound B7] please.
81.7

These measurements were taken from patent US12569495B2.
